From: patent US20100015135A1

Molecular target: T1, human EphB4-His (human) (UniProt P54760)
T1 sequence (looked up): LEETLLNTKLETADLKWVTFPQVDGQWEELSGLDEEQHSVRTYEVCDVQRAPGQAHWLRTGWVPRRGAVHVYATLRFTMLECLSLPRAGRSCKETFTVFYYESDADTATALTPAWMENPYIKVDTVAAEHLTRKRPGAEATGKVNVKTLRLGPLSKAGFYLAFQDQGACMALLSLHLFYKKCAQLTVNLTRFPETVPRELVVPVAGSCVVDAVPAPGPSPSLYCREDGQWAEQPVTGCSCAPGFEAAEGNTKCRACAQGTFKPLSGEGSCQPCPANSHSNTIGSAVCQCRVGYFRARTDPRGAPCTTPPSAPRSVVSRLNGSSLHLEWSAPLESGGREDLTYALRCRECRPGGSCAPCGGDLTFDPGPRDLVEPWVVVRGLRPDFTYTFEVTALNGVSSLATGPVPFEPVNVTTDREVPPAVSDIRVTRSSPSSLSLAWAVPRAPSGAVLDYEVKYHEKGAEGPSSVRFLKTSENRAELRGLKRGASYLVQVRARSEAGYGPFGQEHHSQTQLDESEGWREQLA
Assay: SPR, BIAcore-3000, antibody coupled to CM5 chip, EphB4-His injected, 25 C
Measured Property: koff

### Prompt Please give the measured koff for this binder: anti-EphB4 antibody clone YW30.35.1D2 (antibody, V domains shown) VH: EVQLVESGGGLVQPGGSLRLSCAASGFTISGYYIHWVRQAPGKGLEWVGGIYPYSGSTDYADSVKGRFTISADTSKNTAYLQMNSLRAEDTAVYYCARSSGLRLGGLDYAMDYWGQGTLVTVSS VL: DIQMTQSPSSLSASVGDRVTITCRASQDSEIFLAWYQQKPGKAPKLLIYSASNLESGVPSRFSGSGSGTDFTLTISSLQPEDFATYYCQQSNAVPLTFGQGTKVEIK
### Response < 5e-06 s⁻¹
